Record form. Attribute: polymerase ribozyme fitness (log ratio). Fill in for each entry.
B1: TPR 5TU (parent)
chain: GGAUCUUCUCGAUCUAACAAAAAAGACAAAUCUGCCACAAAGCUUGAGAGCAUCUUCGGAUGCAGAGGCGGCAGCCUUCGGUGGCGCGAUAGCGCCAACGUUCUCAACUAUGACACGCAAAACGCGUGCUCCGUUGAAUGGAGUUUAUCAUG

Variants of: B1
Assay Overview: polymerase ribozyme fitness, log enrichment relative to wild type (log ratio); higher = more active; in vitro selection for triplet polymerase activity
Variants at the floor of the assay were thinned out.
One number for each entry.

A selection of reference data follows.
INSERT INTO results (mutation_annotation, observed_property, measurement) VALUES
  ('A3U C93U C118U', 'polymerase ribozyme fitness (log ratio)', -1.3),
  ('U6C G83A C114U', 'polymerase ribozyme fitness (log ratio)', -2.57),
  ('A49U G141A', 'polymerase ribozyme fitness (log ratio)', -1.34),
  ('U31G', 'polymerase ribozyme fitness (log ratio)', 0.749),
  ('A17G G59U A97C C99G', 'polymerase ribozyme fitness (log ratio)', -2.61),
  ('A119U U134A', 'polymerase ribozyme fitness (log ratio)', -2.99),
  ('A49G G117U', 'polymerase ribozyme fitness (log ratio)', -0.367),
  ('U9C U13A U15A C76U G86U', 'polymerase ribozyme fitness (log ratio)', -4.11);

Input A20C A21U U55A G59C C85A G126U . Output polymerase ribozyme fitness (log ratio): -0.602
